src = ChEMBL document CHEMBL4834479

# Measured On: MAP2K3/Myc proto-oncogene protein (Homo sapiens, UniProt P01106+P46734)
# Sequence (P46734 whole entry, the tested form may be a part): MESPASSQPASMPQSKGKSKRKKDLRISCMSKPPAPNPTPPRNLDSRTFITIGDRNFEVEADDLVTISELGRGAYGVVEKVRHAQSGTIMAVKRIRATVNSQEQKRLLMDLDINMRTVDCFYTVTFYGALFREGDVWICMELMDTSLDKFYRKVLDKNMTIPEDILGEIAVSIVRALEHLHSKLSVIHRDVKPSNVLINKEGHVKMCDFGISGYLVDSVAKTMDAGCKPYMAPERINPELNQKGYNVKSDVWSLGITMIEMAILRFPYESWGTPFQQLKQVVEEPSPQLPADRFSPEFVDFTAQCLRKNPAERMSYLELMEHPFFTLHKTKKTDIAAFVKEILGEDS
# Sequence (P01106 whole entry, the tested form may be a part): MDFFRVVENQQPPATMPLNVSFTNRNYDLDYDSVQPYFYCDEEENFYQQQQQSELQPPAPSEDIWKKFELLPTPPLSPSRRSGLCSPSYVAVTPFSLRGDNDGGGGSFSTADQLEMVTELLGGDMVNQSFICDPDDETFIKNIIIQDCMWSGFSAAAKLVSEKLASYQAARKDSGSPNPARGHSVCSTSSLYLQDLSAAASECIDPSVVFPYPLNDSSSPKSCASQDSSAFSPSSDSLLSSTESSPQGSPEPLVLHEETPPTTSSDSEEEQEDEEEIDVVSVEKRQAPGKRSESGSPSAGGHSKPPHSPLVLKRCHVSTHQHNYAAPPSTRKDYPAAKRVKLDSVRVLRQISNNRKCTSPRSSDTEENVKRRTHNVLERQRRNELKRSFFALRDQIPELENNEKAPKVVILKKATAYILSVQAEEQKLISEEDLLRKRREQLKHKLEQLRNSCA
# Assay Summary: Disruption of interaction between human recombinant GST-tagged MKK3/His-tagged MYC HLH LZ domain measured after 2 hrs by TR-FRET assay
# Assay type: protein assay
Assay Readout: pIC50
Scale: negative log10 of molar concentration, which is what pIC50 denotes.

Record `Cc1cc(Nc2ccc(NC(=O)c3ccc(Nc4ccnc5ccccc45)cc3)cc2)nc(N)n1` . Reported pIC50: 5.01

----------
Listed compounds paired with reported pIC50
# Measured On: MAP2K3/Myc proto-oncogene protein (Homo sapiens, UniProt P01106+P46734)
# Assay Summary: Disruption of interaction between human recombinant GST-tagged MKK3/VF-tagged MYC expressed in HEK293T cells measured after 2 hrs by TR-FRET assay
# Type: cell-based
Scale: negative log10 of molar concentration, which is what pIC50 denotes.

Compound Structure String	Assay Readout	Measured Value
O=C(O)C1=CC(=C(c2ccc(O)c(C(=O)O)c2)c2ccc(O)c(C(=O)O)c2)C=CC1=O	pIC50	4.85

Record `CC(C)c1cc(C(C)C)c(CC(=O)NS(=O)(=O)Oc2c(C(C)C)cccc2C(C)C)c(C(C)C)c1` . Reported pIC50: 4.19

Record `Cc1cc(Nc2ccc(NC(=O)c3ccc(Nc4ccnc5ccccc45)cc3)cc2)nc(N)n1` . Reported pIC50: 5.07
